Experiment: Pharmacokinetic test in SD rats
Details: male, SD, rat, plasma, po, 3 mg/kg
Quantity measured: MRT inf (h)
Give just the numeric value; h need not be written.

[ask] Give its MRT inf value. Item: CC(C)C[C@](C)(N)COc1ccc(-c2c[nH]c3ncc(F)cc23)nc1C(F)F
[reply] 10.9

---

Biological target: AAK1 (30-330) protein (Homo sapiens, UniProt Q2M2I8)
Construct: (His)6x (N); TEV protease cleavage site (N)
Sequence (Q2M2I8 30-330): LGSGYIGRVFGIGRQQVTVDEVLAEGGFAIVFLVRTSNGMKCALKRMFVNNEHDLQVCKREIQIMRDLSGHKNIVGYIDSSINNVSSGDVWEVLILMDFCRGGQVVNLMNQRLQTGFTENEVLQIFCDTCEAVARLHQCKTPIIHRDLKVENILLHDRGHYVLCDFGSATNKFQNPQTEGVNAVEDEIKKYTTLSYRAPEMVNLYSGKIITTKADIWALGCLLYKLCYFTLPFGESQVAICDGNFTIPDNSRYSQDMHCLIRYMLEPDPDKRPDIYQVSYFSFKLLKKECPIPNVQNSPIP
Test: AAK1 kinase assay (ADP generated, detected by HPLC)
Settings: 3.5 nM AAK1, 22 µM ATP, 25°C, 3 h
Below, each entry is listed with its recorded IC50.
Give the value in nM but do not write nM after it.

Look over these answered cases.
CC(C)C[C@](C)(N)COc1ccc(-c2ccnc3c(C(=O)O)cnn23)nc1C1CC1 [Compound 22]	170
CC(C)C[C@](C)(N)COc1ccc(-c2c[nH]c3ncc(F)cc23)nc1C(F)F [Compound 26]	86.3

Now turn to the next compound.
[ask] Look at this compound and give its reported IC50. Cc1cnc2[nH]cc(-c3ccc(OC[C@@](C)(N)CC(C)C)c(C(F)F)n3)c2c1 [Compound 45, diformate]
[reply] 6.5

All values here come from patent EP4692089A1.
